Tested on: HEK-CMV-Luc2-Hygro cells
Assay explanation: High-throughput genome-wide siRNA screen and validation screen for luciferase expression
Assay type: cell-based, human
Condition context: Table 4; primary screen, 72 h, negative control = 100%
Answer each item with its documented per cell luciferase yield (%).
Numbers only, in %.

>>> df
                                  substance                    result_type  unit_abbreviation  numeric_readout
0  204 (CUCCCGCAGUUGAACAUCATT; chemistry not given here; listed as Homo sapiens) [compound 204]  per cell luciferase yield (%)                  %          136.174

Report per cell luciferase yield (%) for every entry below.
1. 193 (GGGACACUGUCAACCUCUATT; chemistry not given here; listed as Homo sapiens) [compound 193]
2. 192 (GCAUCUGUCCGAUCGCUCUTT; chemistry not given here; listed as Homo sapiens) [compound 192]
3. 128 (CAGCAAACCUUUGACCAGATT; chemistry not given here; listed as Homo sapiens) [compound 128]

## Result
205.132
143.889
277.511

Lab note: each substance below needs its per cell luciferase yield (%) filled in.
1. 149 (CGACCAUCAUGGAAAACAUTT; chemistry not given here; listed as Homo sapiens) [compound 149]
2. 201 (CCCUGAAGGUUACCUCUUUTT; chemistry not given here; listed as Homo sapiens) [compound 201]
3. 187 (AGAAAGCUUUGGGCAAAUATT; chemistry not given here; listed as Homo sapiens) [compound 187]
4. 94 (AGAGGCUACUUUGAAAACATT; chemistry not given here; listed as Homo sapiens) [compound 94]

## Result
294.800
273.535
200.070
227.583

// input: 2 substances below; output: per cell luciferase yield (%) for each
1. 205 (CUCUGAUUGUCACCUCUUATT; chemistry not given here; listed as Homo sapiens) [compound 205]
2. 107 (CCAUAUAUCCGAAUGACCATT; chemistry not given here; listed as Homo sapiens) [compound 107]

## Result
281.113
256.443

// batch mode: one per cell luciferase yield (%) value per listed entry
1. 197 (GACUCAGAGUAACAACGCATT; chemistry not given here; listed as Homo sapiens) [compound 197]
2. 127 (CCAACUACCUGAACGAUGATT; chemistry not given here; listed as Homo sapiens) [compound 127]

## Result
1. 162.372
2. 311.348

Value source: patent US20160319277A1
